# Target System: phosphatase domain of PHLPP2 (Homo sapiens)
# Method Notes: In vitro inhibition of PHLPP2 phosphatase domain, pNPP as substrate
# Type: biochemical
# Test Context: with respect to pNPP
Reported Metric: mechanism (type) of inhibition

# Structure Notation, Target System, Readout Value
rows = [
    ("Nc1c(S(=O)(=O)O)cc(Nc2cccc(S(N)(=O)=O)c2)c2c1C(=O)c1ccccc1C2=O", "phosphatase domain of PHLPP2 (Homo sapiens)", "noncompetitive"),
    ("Cc1cc(/N=N/c2ccc(/N=N/c3ccc(O)c(C(=O)O)c3)cc2)c(N)cc1N", "phosphatase domain of PHLPP2 (Homo sapiens)", "noncompetitive"),
]

* * *

# Target System: phosphatase domain of PHLPP2 (Homo sapiens, UniProt Q6ZVD8)
# Sequence (Q6ZVD8 785-1033 limits assumed): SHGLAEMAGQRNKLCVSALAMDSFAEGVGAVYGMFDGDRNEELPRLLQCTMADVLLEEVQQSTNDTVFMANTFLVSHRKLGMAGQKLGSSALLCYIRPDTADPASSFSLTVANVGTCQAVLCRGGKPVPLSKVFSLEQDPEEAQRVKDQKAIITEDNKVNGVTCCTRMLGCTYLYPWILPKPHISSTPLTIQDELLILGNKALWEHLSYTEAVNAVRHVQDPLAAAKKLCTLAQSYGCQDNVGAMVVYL
Reported Metric: IC50 (µM)
// note: answer is a bare numeric in µM

Need IC50, item Nc1c(S(=O)(=O)O)cc(Nc2cccc(S(N)(=O)=O)c2)c2c1C(=O)c1ccccc1C2=O [Compound 1]
5.45
